# Organism: Sus scrofa
# Measurement Notes: Maximal elimination rate of metabolism for hog liver folyl-poly-glutamate synthetase was evaluated
# Assay type: ADME
# Set-up: unit not given here
# Condition Info: pig
Please use Yes for Vmax under 70 and No for everything else, ties included.

is_below(Vmax, 70) for Nc1nc(O)c2cc(COc3ccc(C(=O)NC(CCC(=O)O)C(=O)O)cc3)ccc2n1 (stereo not drawn) ? Yes

Please state whether Vmax is below 70 for Nc1nc2ncc(CNc3ccc(C(=O)N[C@@H](CCC(=O)O)C(=O)O)cc3)nc2c(=O)[nH]1 (stereo in doubt; form 2) [FOLIC ACID] Yes

---
Dear colleague, could you confirm whether Vmax of Nc1nc(O)c2cc(CSc3ccc(C(=O)NC(CCC(=O)O)C(=O)O)cc3)ccc2n1 (stereo not drawn) falls below 70? Thanks. Yes

Strictly below 70: is that where Vmax of Nc1nc2ncc(CNc3ccc(C(=O)N[C@@H](CCC(=O)O)C(=O)O)cc3)nc2c(=O)[nH]1 (stereo in doubt; form 1) [FOLIC ACID] sits? No

Vmax strictly < 70 for this compound? O=C(O)CCC(NC(=O)c1ccc(SCc2ccc3ncnc(O)c3c2)cc1)C(=O)O (stereo not drawn) Yes

Take the compound O=C(O)CCC(NC(=O)c1ccc(OCc2ccc3ncnc(O)c3c2)cc1)C(=O)O (stereo not drawn) and say whether its Vmax is less than 70. No

Confirm or reject: Vmax of Nc1nc(N)c2c(Cl)c(CNc3ccc(C(=O)NC(CCC(=O)O)C(=O)O)cc3)ccc2n1 (stereo not drawn) lies strictly below 70 Yes
